- Test system: NCI-H522 lung
- measurement description: NCI tumour cell line growth inhibition, 48 h
Label rule, in plain words: TGI of 3 µM and up is y, under 3 µM is n.

>  <compound>
Cc1c2c(n(CCc3ccccc3)c1C)NN=C(C#N)S2(=O)=O

>  <label value>
y

$$$$
>  <compound>
c1ccc2sc(C3(N4CCCCC4)CCCC3)cc2c1

>  <label value>
y

$$$$
>  <compound>
C=C1C(=O)O[C@H]2[C@H]1CC/C(Cn1cc(-c3ccccc3)nn1)=C\CC[C@@]1(C)O[C@@H]21

>  <label value>
n

$$$$
>  <compound>
CC(c1cccc2ccccc12)/[N+]([O-])=C/c1ccccc1 (stereo not drawn)

>  <label value>
y

$$$$
>  <compound>
COc1ccc(OC)c2nc3c(C(=O)NCCN(C)C)cccc3nc12

>  <label value>
y

$$$$
>  <compound>
O=[N+]([O-])C(=C(N1CCOCC1)N1CCOCC1)/C(Cl)=C(\Cl)[N+](=O)[O-]

>  <label value>
n

$$$$
>  <compound>
COC(=N)C12C(N)=NC(OC)(OC)C1(C#N)C21C(=O)N(c2ccccc2)N=C1C (stereo not drawn)

>  <label value>
y

$$$$
>  <compound>
CCOC(=O)Oc1c(OC)cc(C(=O)O[C@@H]2C[C@@H]3CN4CCc5c([nH]c6cc(OC)ccc56)[C@H]4C[C@@H]3[C@H](C(=O)OC)[C@H]2OC)cc1OC

>  <label value>
y

$$$$
>  <compound>
CCN(CC)Cc1cc(Nc2c3ccccc3nc3c2[nH]c2ccccc23)ccc1O

>  <label value>
n

$$$$
>  <compound>
O=C(C(Br)Br)C(Br)C(Br)c1ccccc1 (stereo not drawn)

>  <label value>
y

$$$$
>  <compound>
O=S(O)c1cc(Cl)cc(Cl)c1O

>  <label value>
y

$$$$
>  <compound>
COC1OC(CO)C(O)C(OC(=O)c2cc(O)c(O)c(O)c2)C1OC(=O)c1cc(O)c(O)c(O)c1 (stereo not drawn)

>  <label value>
y

$$$$
>  <compound>
O=C(O)CN1CCN(CC(=O)O)CCN(CC(=O)O)CCN(CC(=O)O)CC1

>  <label value>
y

$$$$
>  <compound>
NC1=NC(OCC2(CO)CCC2)C=C(NCC2(CO)CCC2)N1 (stereo not drawn)

>  <label value>
y

$$$$
>  <compound>
CN(C)CCNc1ccc2c(=O)n(CCN(C)C)c(=O)n3c4ccc(N)cc4c(=O)c1c23

>  <label value>
n

$$$$
>  <compound>
COC(=O)CC1C(=O)OCc2c1cc1n(c2=O)Cc2c-1nc1ccccc1c2OC (stereo not drawn)

>  <label value>
y

$$$$
>  <compound>
O=C(/C=C/c1ccc(O)cc1)NCCc1ccc(O)cc1

>  <label value>
y

$$$$
>  <compound>
CC1(C)C(=O)N=C(N)N1C(=O)OCc1ccccc1

>  <label value>
y

$$$$

###

- System: MALME-3M melanoma
- measurement description: NCI tumour cell line growth inhibition, 48 h

>  <molecule>
O=C1CCC2SC1CCC2=O

>  <readout units>
µM

>  <value operator>
>

>  <TGI>
100

$$$$
>  <molecule>
CCN(CC)CCS(=O)c1c2cc(OC)ccc2nc2ccc(OC)cc12 (stereo unspecified)

>  <readout units>
µM

>  <value operator>
=

>  <TGI>
2.51

$$$$
>  <molecule>
NC1CC(=O)c2cc(Br)sc21 (stereo unspecified)

>  <readout units>
µM

>  <value operator>
>

>  <TGI>
100

$$$$
>  <molecule>
CCOP(=O)(OCC)/C(C#N)=C/c1ccco1

>  <readout units>
µM

>  <value operator>
>

>  <TGI>
100

$$$$
>  <molecule>
CN(C)CCNc1ccc2c(=O)n(CCN(C)C)c(=O)n3c4ccc(N)cc4c(=O)c1c23

>  <readout units>
µM

>  <value operator>
=

>  <TGI>
0.352

$$$$
>  <molecule>
Cc1[nH]c(/C=C2\C(=O)Nc3ccc(F)cc32)c(C)c1C(=O)NC[C@H](O)CN1CCOCC1

>  <readout units>
µM

>  <value operator>
>

>  <TGI>
10

$$$$
>  <molecule>
C[C@]12CC(c3ccccc3O1)C(C(=O)NC13CC4CC(CC(C4)C1)C3)C(=O)N2 (stereo partly specified)

>  <readout units>
µM

>  <value operator>
>

>  <TGI>
100

$$$$
>  <molecule>
COC(=O)C1=CC[C@@H]2C(C(=O)O)=CO[C@@H](OC3OC(CO)C(O)C(O)C3O)[C@H]12 (stereo partly specified)

>  <readout units>
µM

>  <value operator>
>

>  <TGI>
300

$$$$
>  <molecule>
CN(C)Cc1ccc(C(=O)Nc2ccc3ncnc(Nc4ccc(Oc5cccc(F)c5)c(Cl)c4)c3c2)cc1

>  <readout units>
µM

>  <value operator>
=

>  <TGI>
3.01

$$$$
>  <molecule>
CC(C(=O)Oc1ccc2ccccc2c1-c1c(O)ccc2ccccc12)c1ccccc1 (stereo unspecified)

>  <readout units>
µM

>  <value operator>
=

>  <TGI>
34.8

$$$$
>  <molecule>
Cc1cc(Cl)ccc1N=NC(=O)NNc1ccc(Cl)cc1C

>  <readout units>
µM

>  <value operator>
=

>  <TGI>
37.9

$$$$
>  <molecule>
CCCCc1c2c(nc3c1CCC/C3=C\c1ccccc1)C(=O)C(CN(C)C)CC2 (stereo unspecified)

>  <readout units>
µM

>  <value operator>
=

>  <TGI>
40.4

$$$$
>  <molecule>
OCCCCC#Cc1ccccc1C#Cc1ccccc1C(F)(F)F

>  <readout units>
µM

>  <value operator>
=

>  <TGI>
37.5

$$$$
>  <molecule>
Fc1ccc(-c2ccc(-c3nnc(-c4cc(F)c(Cl)cc4Cl)o3)o2)cc1Cl

>  <readout units>
µM

>  <value operator>
=

>  <TGI>
59

$$$$
>  <molecule>
O=C(O)C12C3CCCC1C2CC3 (stereo unspecified)

>  <readout units>
µM

>  <value operator>
>

>  <TGI>
100

$$$$
>  <molecule>
O=C(Nc1nc(C23CC4CC(CC(C4)C2)C3)cs1)c1cc2cc(Br)cc(Br)c2oc1=O

>  <readout units>
µM

>  <value operator>
>

>  <TGI>
100

$$$$
>  <molecule>
C=C1C(=O)C23CC1C[C@H](OC(C)=O)C2C1(C)C(OC(C)=O)C[C@H](O)C(C)(C)[C@H]1C(O)[C@@H]3OC(C)=O (stereo partly specified)

>  <readout units>
µM

>  <value operator>
=

>  <TGI>
19.9

$$$$
>  <molecule>
COc1ccc2ccc([Se]c3ccc4ccc(OC)cc4c3)cc2c1

>  <readout units>
µM

>  <value operator>
>

>  <TGI>
100

$$$$
>  <molecule>
CCOC(=O)n1cncc1CC(NC(=O)Cc1c(C(=O)C=C(C)C)[nH]c2ccccc12)C(=O)OC (stereo unspecified)

>  <readout units>
µM

>  <value operator>
=

>  <TGI>
32.8

$$$$
>  <molecule>
O=C1C(=O)c2ccccc2C(O)=C1C(CCc1ccccc1)C1=C(O)c2ccccc2C(=O)C1=O

>  <readout units>
µM

>  <value operator>
=

>  <TGI>
29.7

$$$$
>  <molecule>
S=C(Nc1ccc(Cl)cc1)Nc1ccc(-c2nc3ccccc3[nH]2)cc1

>  <readout units>
µM

>  <value operator>
=

>  <TGI>
32.1

$$$$

###

- Test system: MALME-3M melanoma
- measurement description: NCI tumour cell line growth inhibition, 48 h

>  <molecule>
O=C(C(Br)Br)C(Br)C(Br)c1ccccc1 (stereo not given)

>  <experimental target>
MALME-3M melanoma

>  <TGI>
8.65 µM

$$$$
>  <molecule>
CCC(=O)COc1ccc(NC(NC(=O)C(C(F)(F)F)C(F)(F)F)(C(F)(F)F)C(F)(F)F)cc1

>  <experimental target>
MALME-3M melanoma

>  <TGI>
77.7 µM

$$$$
>  <molecule>
CCOC(=O)CCC(NC(=O)c1ccc(Nc2nc3cc(C(F)(F)F)ccc3nc2-c2ccccc2)cc1)C(=O)OCC (stereo not given)

>  <experimental target>
MALME-3M melanoma

>  <TGI>
> 100 µM

$$$$
>  <molecule>
[N-]=[N+]=NC1C(Br)C(=O)NC(=O)N1[C@H]1C[C@H](O)[C@@H](CO)O1 (stereo not given in full)

>  <experimental target>
MALME-3M melanoma

>  <TGI>
> 100 µM

$$$$
>  <molecule>
CC1C[C@]2(C)C(=S)Nc3ccccc3[C@@H]2Nc2ccccc21 (stereo not given in full)

>  <experimental target>
MALME-3M melanoma

>  <TGI>
30.8 µM

$$$$

###

# maps each entry to its TGI
- System: TK-10 renal
- measurement description: NCI tumour cell line growth inhibition, 48 h
value type: TGI (µM)

>  <molecule>
O=C(O)c1cc2c(cn1)[nH]c1ccccc12

>  <readout units>
µM

>  <value operator>
>

>  <reported>
100

$$$$
>  <molecule>
COc1ccc(CN(CCc2c[nH]c3ccccc23)Cc2ccc(OC)cc2)cc1

>  <readout units>
µM

>  <value operator>
=

>  <reported>
3.97

$$$$
>  <molecule>
C=C[C@H]1CN2CCc3c([nH]c4c([C@H]5CCCN5C)c(O)ccc34)[C@@H]2C[C@@H]1C[C@H]1c2[nH]c3ccccc3c2CCN1C

>  <readout units>
µM

>  <value operator>
=

>  <reported>
3.36

$$$$
>  <molecule>
COC(=O)C1=C(O)C(O)=C(C(=O)OC)C1

>  <readout units>
µM

>  <value operator>
>

>  <reported>
100

$$$$
>  <molecule>
CCCCc1c2c(nc3c1CCC/C3=C\c1ccccc1)C(=O)C(CN(C)C)CC2 (stereo not given)

>  <readout units>
µM

>  <value operator>
=

>  <reported>
29.6

$$$$
>  <molecule>
CCOC(=O)c1nc2ccc(C(F)(F)F)cc2nc1Oc1ccc(F)cc1

>  <readout units>
µM

>  <value operator>
>

>  <reported>
100

$$$$
>  <molecule>
O=C(Cc1ccccc1)c1ccc2[nH]c(=O)oc2c1

>  <readout units>
µM

>  <value operator>
>

>  <reported>
100

$$$$
>  <molecule>
C[N+](C)(CCCCCC[N+](C)(C)CCCN1C(=O)c2cc3ccccc3cc2C1=O)CCCN1C(=O)c2ccccc2C1=O

>  <readout units>
µM

>  <value operator>
>

>  <reported>
37.5

$$$$
>  <molecule>
COc1ccc(SC(C)(SC)c2ccccn2)c(OC)n1 (stereo not given)

>  <readout units>
µM

>  <value operator>
>

>  <reported>
100

$$$$
>  <molecule>
O=c1cc(-c2ccccc2)nc2n1CCN2Cc1ccccc1

>  <readout units>
µM

>  <value operator>
=

>  <reported>
95.7

$$$$

Values were extracted from PubChem BioAssay (NCI).
